# experimental.details: chemical genetic growth profiling, strain panel (AID 1159580);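 also: tested at 20 µM; growth read once vehicle control cultures reached saturation at 30 °C; lower values mean less growth of the strain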
# reported.conditions: S. cerevisiae deletion strains, growth OD, locus YLR357W, strain rsc2
Among all 5,500 compounds or so, about 2,000 (36%) were called active. Roughly 18% stayed inconclusive and do not appear here. Rule as the data show it: active = normalized growth mostly below about 0.91 (no sharp cut-off); inconclusive = no clear call, values can overlap the other calls; inactive = mostly above about 0.92. The list shows a part of the results.
Classes used: active, inactive

* NCC[C@@H](O)C(=O)N[C@@H]1C[C@H](N)[C@@H](O[C@H]2O[C@H](CN)[C@@H](O)[C@H](O)[C@H]2O)[C@H](O)[C@H]1O[C@H]1O[C@H](CO)[C@@H](O)[C@H](N)C1O (stereo not given in full) | inactive
* CCCCC(=O)O[C@]1(C(=O)CO)CCC2C3CCC4=CC(=O)CC[C@]4(C)C3[C@@H](O)C[C@@]21C (stereo not given in full) | inactive
* C=CCS(=O)C[C@H](N)C(=O)O (stereo not given in full) | inactive
* C1N2CN3CN1CN(C2)C3 | inactive
* CC(=O)C1CC[C@H]2C3CC[C@H]4C[C@H](O)CC[C@]4(C)C3CC[C@]12C (stereo not given in full) | inactive
* COP(=S)(OC)Oc1ccc(Sc2ccc(OP(=S)(OC)OC)cc2)cc1 | inactive
* C[C@]12C=CC(=O)C=C1CCC1C2[C@@H](O)C[C@@]2(C)C1CC[C@]2(O)C(=O)CO (stereo not given in full) | inactive
* COc1ccc(CCC(=O)c2c(O)cc(O[C@@H]3O[C@H](CO)C(O)[C@H](O)C3O[C@@H]3O[C@@H](C)[C@H](O)[C@@H](O)[C@H]3O)cc2O)cc1O (stereo not given in full) | inactive
* COC(=O)[C@@H]1OC(=O)C2OC23[C@@]1(C)CCC1[C@@]2(C)CCC(=O)C(C)(C)C2C[C@@H](OC(C)=O)[C@]13C (stereo not given in full) | inactive
* CCN1C[C@@]2(COC)C3[C@@H](OC)[C@H]4[C@@H]1[C@]3(C(OC)C[C@H]2O)C1C[C@@]2(O)[C@H](OC(=O)c3ccccc3)C1[C@]4(OC(C)=O)[C@@H](O)[C@@H]2OC (stereo not given in full) | inactive
* NCCCCC(=O)O | inactive
* COc1cc2c(cc1OC)C1(O)C(=O)c3ccc(O)c(C(=O)O)c3OC1CO2 (stereo not given) | inactive
* COc1cc(NS(C)(=O)=O)ccc1Cc1c2ccccc2nc2ccccc12 | inactive
* C[C@]12CCC3c4ccc(OC(=O)c5ccccc5)cc4CCC3C1CCC2=O (stereo not given in full) | inactive
* COC(=O)[C@@H]1OC(=O)C2OC23[C@@]1(C)CCC1[C@]2(C)C(C[C@@H](O)[C@]13C)C(C)(C)[C@H](OC(C)=O)C[C@@H]2OC(C)=O (stereo not given in full) | inactive
* Clc1ccc(C(c2ccccc2Cl)C(Cl)Cl)cc1 (stereo not given) | inactive
* CC(O)(P(=O)(O)O)P(=O)(O)O | inactive
* Fc1ccc([C@@H]2CCNC[C@H]2COc2ccc3c(c2)OCO3)cc1 | inactive
* COC[C@]12CN(C=O)C3[C@@H]4[C@H](OC)C1[C@]3(C1CC3(O)C(OC)C(O)C4(OC(C)=O)C1C3OC(=O)c1ccccc1)[C@@H](OC)C[C@H]2O (stereo not given in full) | inactive
* COc1ccc2c(c1)OCC(Cc1ccc(OC)c(OC(C)=O)c1)C2=O (stereo not given) | inactive
* COc1ccc2c(c1)OCC(Cc1ccc(OC)c(OC)c1)C2=O (stereo not given) | inactive
* NC(N)=NCCCCN=C(N)N | inactive
* CCCCCCCCCCCCCC(=O)OC1C(C)C2(O)C(C=C(CO)CC3(O)C(=O)C(C)=CC32)C2C(C)(C)C12OC(C)=O (stereo not given) | inactive
* COc1ccc2c(c1)OCC(Cc1ccc(O)c(OC)c1)C2=O (stereo not given) | inactive
* CC(=O)Oc1ccc2c(c1)CCC1C2CC[C@]2(C)C(=O)CCC12 (stereo not given in full) | inactive
* O=C(O)[C@@H](S)[C@@H](S)C(=O)O | active
* CC(C)=CC1C(C(=O)OCc2cccc(Oc3ccccc3)c2)C1(C)C (stereo not given) | inactive
* O=c1cccc2n1CC1CC2CN2CCCC[C@@H]12 (stereo not given in full) | inactive
* CCCn1c(=O)c2[nH]c(C3CCCC3)nc2n(CCC)c1=O | inactive
* N[C@@H](C(=O)O)[C@@H](O)[C@H](O)[C@H](O)CO | inactive
* O=C(O)C(O)C(O)C(=O)O (stereo not given) | inactive
* CN(C)C(=O)Oc1ccc[n+](C)c1 | inactive
* Oc1c(Cl)cc(Cl)c(Cl)c1Cc1c(O)c(Cl)cc(Cl)c1Cl | active
* CN[C@@H]1C(OC2[C@H](O[C@H]3[C@H](O)[C@@H](O)[C@H](N=C(N)N)[C@@H](O)[C@@H]3N=C(N)N)OC(C)[C@]2(O)CO)OC(CO)C(O)C1O (stereo not given in full) | inactive
* COc1cc(C)c2c(=O)cc(-c3ccccc3)oc2c1 | inactive
* Cc1cc(CC(=O)O)n(C)c1C(=O)c1ccc(Cl)cc1 | inactive
* CC(=O)N[C@@H](CCC(=O)O)C(=O)O | inactive
* CC(C)(S)[C@@H](N)C(=O)O | inactive
* NC(C(=O)O)C(O)C(=O)O (stereo not given) | inactive
* O=C(O)CCCCCCCC(=O)O | inactive
